Below, each entry is listed alongside its reported growth.
System: SW-620 colon
TEST DESCRIPTION: NCI-60 one-dose screen, 48 h (100 = growth as untreated, 0 = no growth, -100 = all killed)
RUN CONDITIONS: 10 µM unless noted
Protocol: Growth inhibition of the SW-620 human tumor cell line is measured as a screen for anti-cancer activity. Cells are grown in 96 well plates and exposed to the test compound for 48 hours. Compounds are tested at a single concentration, which is 10^-5 M for most compounds. The reported endpoint is percent growth (GI% or GIPRCNT), where numbers from 0 - 100% represent growth inhibition, and numbers from -100% - 0 represent cell death. For example, a value of 40 represents 60% growth inhibition. […]
Compounds without any hit were thinned out: in the full panel of roughly 83,000, 20% have a hit.
Form entry: value (%) — number only.

- COMPOUND: "Cc1cccc(N=Nc2cccc(C)c2)c1"
  UNIT INFO: "%"
  growth: 106
- COMPOUND: "O=C(CN1C(=O)S/C(=C\\C(Cl)=C\\c2ccccc2)C1=O)NC1CCS(=O)(=O)C1 (stereo not given)"
  UNIT INFO: "%"
  growth: 22.6
- COMPOUND: "CC(C)(C)c1ccc(C(=O)N/N=C/c2ccc(O)cc2O)cc1"
  UNIT INFO: "%"
  growth: 30
- COMPOUND: "CC(=O)c1ccc(-n2cc(CN3CCN(c4cc5c(cc4F)c(=O)c(C(=O)O)cn5C4CC4)CC3)nn2)cc1"
  UNIT INFO: "%"
  growth: 90

Please examine the following record next.
Look up and report measured growth for this entry: Fc1ccc(/C=C/[C@@H]2C[C@@H](F)CCO2)cc1
90.2

* * *

System: ACHN renal
TEST DESCRIPTION: NCI-60 one-dose screen, 48 h (100 = growth as untreated, 0 = no growth, -100 = all killed)
RUN CONDITIONS: 10 µM unless noted
About 83,000 compounds went through this panel and 20% of them were active in at least one assay; those are over-represented in the sample as a whole.
EXPERIMENTAL READOUT: growth (%)
Form entry: value (%) — number only.

# annotated cases, reported growth shown
- COMPOUND: "Nc1cc(C(=O)O)cc(-n2c(O)c(C=C3N=c4ccccc4=N3)sc2=S)c1"
  STUDY TARGET: "ACHN renal"
  EXPERIMENTAL READOUT: "growth"
  ENDPOINT VALUE: 99
- COMPOUND: "Cc1ccc(S(=O)(=O)OCC#CCOS(=O)(=O)c2ccc(C)cc2)cc1"
  STUDY TARGET: "ACHN renal"
  EXPERIMENTAL READOUT: "growth"
  ENDPOINT VALUE: 49.5
- COMPOUND: "CCn1cc(C(=O)O)c(=O)c2cc(F)c(N3CCN(CC(=O)Nc4ccccc4)C(C)C3)c(F)c21 (centres undefined)"
  STUDY TARGET: "ACHN renal"
  EXPERIMENTAL READOUT: "growth"
  ENDPOINT VALUE: 97.8
- COMPOUND: "COc1cccc(CNc2c3ccccc3nc3ccccc23)c1OC"
  STUDY TARGET: "ACHN renal"
  EXPERIMENTAL READOUT: "growth"
  ENDPOINT VALUE: 21.1
- COMPOUND: "COc1cc(/C=C/C(=O)N2CCN(C(=O)c3cc(OC)c(OC)c(OC)c3)CC2)ccc1OCCCOc1cc2c(cc1OC)C(=O)N1CCC[C@H]1C=N2"
  STUDY TARGET: "ACHN renal"
  EXPERIMENTAL READOUT: "growth"
  ENDPOINT VALUE: 0.236
- COMPOUND: "COc1ccc(C(O)c2cc3c(N)c(C(=O)Nc4cccc5ccccc45)sc3nc2C)cc1 (centres undefined)"
  STUDY TARGET: "ACHN renal"
  EXPERIMENTAL READOUT: "growth"
  ENDPOINT VALUE: 22
- COMPOUND: "CC(=O)c1ccc(-n2cc(CN3CCN(c4cc5c(cc4F)c(=O)c(C(=O)O)cn5C4CC4)CC3)nn2)cc1"
  STUDY TARGET: "ACHN renal"
  EXPERIMENTAL READOUT: "growth"
  ENDPOINT VALUE: 96.7
- COMPOUND: "C=CCN=c1sc(-c2ccc3ccccc3c2)cn1NC(=O)c1cc2ccc1CCc1ccc(cc1)CC2"
  STUDY TARGET: "ACHN renal"
  EXPERIMENTAL READOUT: "growth"
  ENDPOINT VALUE: 72.3

Please examine the following record next.
Look up and report measured growth for this entry: CCn1cc(Cc2cc(C(=O)Nc3cc4cc(OC)c(OC)cc4c(C)n3)ccc2Cl)cn1
15.7

* * *

System: SK-MEL-2 melanoma
TEST DESCRIPTION: NCI-60 one-dose screen, 48 h (100 = growth as untreated, 0 = no growth, -100 = all killed)
RUN CONDITIONS: 10 µM unless noted
The panel holds about 83,000 compounds, 20% with a hit somewhere; the sample as a whole holds those more often.
EXPERIMENTAL READOUT: growth (%)
Form entry: value (%) — number only.

Look up and report measured growth for this entry: COc1ccc(-c2nc3ccc(C)cc3c3c2c(=O)n(C)c(=O)n3C)cc1OC
123

Look up and report measured growth for this entry: CCn1cc(C(=O)N/N=C/c2ccccc2)c(=O)c2cc(F)c(N3CCNC(C)C3)c(F)c21 (centres undefined)
93.4

Look up and report measured growth for this entry: c1cc(OCCN2CCCC2)ccc1CNc1ccc2nc(CCC3CCCCC3)[nH]c2c1
35.6

Look up and report measured growth for this entry: COC1/C=C/OC2(C)Oc3c(C)c(O)c4c(O)c(c(/C=N/N(c5ccccc5)c5ccccc5)c(O)c4c3C2=O)NC(=O)C(C)=C/C=C/C(C)C(O)C(C)C(O)C(C)C(OC(C)=O)C1C (centres undefined)
82.2

* * *

Tested on: HOP-92 NSCLC
TEST DESCRIPTION: NCI-60 one-dose screen, 48 h
RUN CONDITIONS: 10 µM unless noted
Compounds without any hit were thinned out: in the full panel of roughly 83,000, 20% have a hit. Activity calls are given as the source filed them. How the source made its calls: active means growth percent below 10; inactive means the rest.
API: response.call in yes (active), no (inactive)

Below are worked cases with known answers.
- INPUT SMILES: "Nc1cc(C(=O)O)cc(-n2c(O)c(C=C3N=c4ccccc4=N3)sc2=S)c1"
  CLASS: "no"
- INPUT SMILES: "Cc1sc2nc(NCCN)[nH]c(=O)c2c1C"
  CLASS: "no"
- INPUT SMILES: "O=C(/C=C/c1cccc(Oc2ccccc2)c1)c1ccc(Nc2nc(Nc3ccc(F)cc3)nc(Nc3ccc(Cl)cc3)n2)cc1"
  CLASS: "yes"
- INPUT SMILES: "COc1ccc2c(O)c(/C=C3\\N=Nc4ncccc43)oc2c1C[C@@H]1CCNC[C@H]1F"
  CLASS: "no"
- INPUT SMILES: "CNC(=O)Nc1ccc(-c2ccc3ncnc(Nc4cccc(Cl)c4)c3c2)cc1"
  CLASS: "no"

Which outcome was entered for the compound COc1cc(/C=C/C(=O)N2CCN(C(=O)c3cc(OC)c(OC)c(OC)c3)CC2)ccc1OCCCOc1cc2c(cc1OC)C(=O)N1CCC[C@H]1C=N2 in this test?
yes

Which outcome was entered for the compound O=C(Cn1nc(-c2cccc3ccccc23)ccc1=O)NCc1cccc(Cl)c1 in this test?
no

Which outcome was entered for the compound C=C1C(=O)O[C@H]2[C@H]1CC/C(COC(=O)NCc1ccc(Cn3c(=O)sn(-c4ccc(I)cc4)c3=O)cc1)=C\CC[C@@]1(C)O[C@@H]21 in this test?
no

Which outcome was entered for the compound O=C(O)CCCCCCCCCCN1C(=O)/C(=C2/C(=O)N(CC(=O)O)c3ccc(Br)cc32)SC1=S in this test?
no

* * *

System: SK-MEL-28 melanoma
TEST DESCRIPTION: NCI-60 one-dose screen, 48 h (100 = growth as untreated, 0 = no growth, -100 = all killed)
RUN CONDITIONS: 10 µM unless noted
Compounds without any hit were thinned out: in the full panel of roughly 83,000, 20% have a hit.
EXPERIMENTAL READOUT: growth (%)
Form entry: value (%) — number only.

# annotated cases, reported growth shown
- COMPOUND: "Cc1cc(C)c2c(c1)N(C)c1ncnc(-n3c(C)nc4cc(C)ccc43)c1CC2C (stereo not given)"
  EXPERIMENTAL READOUT: "growth"
  UNIT INFO: "%"
  ENDPOINT VALUE: 59
- COMPOUND: "N#C/C(=C\\c1ccc(-c2cccc(Cl)c2)o1)C(=O)Nc1ncc(Cc2ccc(Cl)cc2)s1"
  EXPERIMENTAL READOUT: "growth"
  UNIT INFO: "%"
  ENDPOINT VALUE: 66.8
- COMPOUND: "CCOC(=O)c1cn2ncnc(Oc3ccc(NC(=O)NC4CC4)c(Cl)c3)c2c1C"
  EXPERIMENTAL READOUT: "growth"
  UNIT INFO: "%"
  ENDPOINT VALUE: 107
- COMPOUND: "CCOC(=O)c1ccc[nH]1"
  EXPERIMENTAL READOUT: "growth"
  UNIT INFO: "%"
  ENDPOINT VALUE: 115
- COMPOUND: "O=C1CCCCN1c1ccc(C2=NCCCN2)cc1"
  EXPERIMENTAL READOUT: "growth"
  UNIT INFO: "%"
  ENDPOINT VALUE: 91.4
- COMPOUND: "FC(F)(F)c1[nH]ncc1-c1nc2ccc3[nH]ncc3c2c2c1CCCC2"
  EXPERIMENTAL READOUT: "growth"
  UNIT INFO: "%"
  ENDPOINT VALUE: 2.24
- COMPOUND: "CSc1ccc2c3c(n(CCCn4ccnc4)c(=O)c2c1)-c1ccccc1C3=O"
  EXPERIMENTAL READOUT: "growth"
  UNIT INFO: "%"
  ENDPOINT VALUE: 78.5
- COMPOUND: "CS(=O)(=O)Nc1cc(-c2ccc3ncnc(Nc4ccc(OCc5ccccn5)c(Cl)c4)c3c2)cnc1Cl"
  EXPERIMENTAL READOUT: "growth"
  UNIT INFO: "%"
  ENDPOINT VALUE: 8.34

Look up and report measured growth for this entry: CCCn1c(=S)sc2c(NNC(C)=O)nc(C)nc21
141

Look up and report measured growth for this entry: C1CCC(N2CN3c4nonc4N4CN(C5CCCCC5)CN5c6nonc6N(C2)C3C45)CC1 (stereo not given)
101

Value source: PubChem BioAssay (NCI)
